System: HCT-116 colon
protocol: NCI tumour cell line growth inhibition, 48 h
Where a SMILES comes first, the peptide text is derived from it. The star is where a group is joined. Boc = CC(C)(C)OC(=O)*; OBn = c1ccc(CO*)cc1
Please respond with reported TGI for every item in the list.

{"compound": "CCOC(=O)NN(C(=O)OCC)C(C(=O)c1ccc(Cl)cc1)=C1NCCN1", "measurement-target": "HCT-116 colon", "TGI": "> 100 µM"}
{"compound": "Nc1ccn(CC(CO)CC(c2ccccc2)P(=O)(O)O)c(=O)n1 (stereo not given)", "measurement-target": "HCT-116 colon", "TGI": "> 100 µM"}
{"compound": "COc1ccc(C(=O)C(CC2C(=O)CC(C)(C)C(C(=O)C(=O)Nc3c(C)cccc3C)C2=O)c2ccc(OC)cc2)cc1 (stereo not given)", "measurement-target": "HCT-116 colon", "TGI": "> 100 µM"}
{"compound": "Cc1ccc(S(=O)(=O)c2ccsc2NC(=O)c2ccccc2)cc1", "measurement-target": "HCT-116 colon", "TGI": "> 100 µM"}
{"compound": "Cc1cccc2c1ccc1c3occ(C)c3c(=O)oc21", "measurement-target": "HCT-116 colon", "TGI": "> 100 µM"}

Record TGI per entry; entries follow.
1. O=[N+]([O-])c1cc([N+](=O)[O-])c(C(Cl)C(Cl)c2ccccc2)cc1C(Cl)C(Cl)c1ccccc1 (stereo not given)
2. COC(=O)c1cn(CCCCO)nn1
3. O=C(c1ccncc1)N1CCN(C2=NS(=O)(=O)c3ccccc3N2c2ccccc2)CC1
4. CC(C)C(NC(=O)CNC(=O)C1CCCN1C(=O)C(NC(=O)OC(C)(C)C)C(C)C)C(=O)NCC(=O)OCc1ccccc1 (stereo not given) (Boc-VPGVG-OBn; configuration not given here)
5. COC(=O)C(C(=O)C(=O)Nc1ccc([N+](=O)[O-])cc1)c1nc2cc(C)c(C)cc2[nH]c1=O (stereo not given)
6. NC(N)=NCCCC(NCc1c2ccccc2[n+]([O-])c2ccccc12)C(=O)O (stereo not given)
7. O=C1c2ccccc2-n2c1nc1cc(Cl)ccc1c2=O
8. Cc1csc(-c2ccc3c(c2)COC3(CCCN(C)C)c2ccc(F)cc2)c1 (stereo not given)

1. 2.69 µM
2. > 100 µM
3. 33.3 µM
4. > 100 µM
5. > 100 µM
6. > 100 µM
7. > 100 µM
8. 3.54 µM

Record TGI per entry; entries follow.
1. C=C(CN(C)C)C(=O)c1ccc(OC)cc1
2. O=C1CCCC(=O)C1C(=O)c1ccc(C(F)(F)F)cc1[N+](=O)[O-]
3. O=C(/C=C/c1cccs1)c1ccc(Cl)s1
4. O=C(NCCCCCCNC(=O)NC1OCC(O)C(O)C1O)NC1OCC(O)C(O)C1O (stereo not given)
5. CN1CC(S(=O)(=O)c2ccccc2)CC(S(=O)(=O)c2ccccc2)C1c1ccccc1 (stereo not given)

["12.8 µM", "> 100 µM", "32.2 µM", "> 100 µM", "22.9 µM"]

Record TGI per entry; entries follow.
1. COc1cc2c(cc1O)-c1c(OC)c(O)cc3c1C(C2)N(C)CC3 (stereo not given)
2. COc1cc(C(=O)Nc2cc(O)c(C/C=C(\C)CCC=C(C)C)c(O)c2)cc2c1O[C@]1(C)CC[C@@H](O)C(C)(C)[C@H]1C2

> 100 µM
7.11 µM

meta.source: PubChem BioAssay (NCI)
